Overview of recorded inhibition at 0.2 µM for various compounds
- TGT: CB2 receptor (Homo sapiens, UniProt P34972)
- Construct: expressed in transfected cells
- Sequence (P34972 whole entry): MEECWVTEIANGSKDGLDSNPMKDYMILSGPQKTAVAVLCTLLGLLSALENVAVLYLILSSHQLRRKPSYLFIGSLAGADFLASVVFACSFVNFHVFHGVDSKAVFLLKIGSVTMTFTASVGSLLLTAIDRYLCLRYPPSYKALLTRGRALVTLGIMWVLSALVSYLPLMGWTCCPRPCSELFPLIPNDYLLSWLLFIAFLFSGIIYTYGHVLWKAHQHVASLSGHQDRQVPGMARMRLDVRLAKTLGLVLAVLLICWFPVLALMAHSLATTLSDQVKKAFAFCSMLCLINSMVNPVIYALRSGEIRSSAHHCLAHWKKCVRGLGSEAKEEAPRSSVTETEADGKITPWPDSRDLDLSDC
- PROTOCOL_TEXT: Binding assay for CB2 agonists or inverse agonists (SK-N-MC membranes, [3H]-CP-55,940)
- MEASUREMENT_CONTEXT: read-out: CB2 receptor binding percent inhibition, test concentration 0.2 μM (footnote 2)
State the answer as a number, implicitly in %.

Recorded inhibition at 0.2 µM, per entry:
Query: Item O=C(N[C@@H](CO)c1ccccc1)c1nn(-c2ccc(Cl)cc2Cl)c2c1CCCC/C2=C\c1ccc(F)cc1 [Cpd 203] has what recorded inhibition at 0.2 µM?
Result: 30

Query: Given O=C(N[C@@H](CO)Cc1ccccc1)c1n[nH]c2c1CCCCC2Cc1cccc(Cl)c1 (stereo partly shown) [Cpd 167] , state its recorded inhibition at 0.2 µM.
Result: 97

Query: Entry C[C@H](NC(=O)c1nn(-c2ccc(Cl)cc2Cl)c2c1CCCC/C2=C\c1ccc(F)cc1)C1CCCCC1 [Cpd 148] : reported inhibition at 0.2 µM = ?
Result: 39

Now turn to the next compound.
Query: So what's the measured inhibition at 0.2 µM for this one? C[C@H](NC(=O)c1nn(-c2cc(Cl)ccc2Cl)c2c1CCCC/C2=C\c1ccc(Cl)cc1)C1CCCCC1 [Cpd 197]
Result: 67

====

Recorded pIC50, one value per entry.
- TGT: CB1 receptor (Homo sapiens, UniProt P21554)
- Construct: expressed in transfected cells
- Sequence (P21554 whole entry): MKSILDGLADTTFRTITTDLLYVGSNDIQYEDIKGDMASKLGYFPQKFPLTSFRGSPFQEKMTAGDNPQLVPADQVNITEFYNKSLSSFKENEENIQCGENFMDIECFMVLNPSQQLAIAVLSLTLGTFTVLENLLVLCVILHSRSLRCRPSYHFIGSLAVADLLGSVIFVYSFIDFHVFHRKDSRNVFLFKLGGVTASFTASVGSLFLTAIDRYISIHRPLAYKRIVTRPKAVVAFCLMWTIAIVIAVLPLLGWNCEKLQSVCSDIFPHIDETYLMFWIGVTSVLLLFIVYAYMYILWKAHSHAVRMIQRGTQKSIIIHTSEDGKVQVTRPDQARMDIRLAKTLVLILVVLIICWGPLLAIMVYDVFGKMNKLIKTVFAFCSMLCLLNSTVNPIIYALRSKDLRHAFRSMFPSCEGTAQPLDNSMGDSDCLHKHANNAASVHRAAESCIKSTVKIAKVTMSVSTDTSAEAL
- PROTOCOL_TEXT: Binding assay for CB1 agonists or inverse agonists (SK-N-MC membranes, [3H]-CP-55,940)
- MEASUREMENT_CONTEXT: Cannabinoid CB1 Receptor Binding IC50, calculated by linear regression from percent inhibition at various test concentrations
- Procedure: The human CB1 and CB2 receptors were stably expressed in SK-N-MC cells transfected with pcDNA3 CB-1 (human) or pcDNA3 CB-2 (human). […] On the day of the assay, the pellet was thawed on ice and diluted in assay buffer (50 mM Tris-HCl, 5 mM MgCl2, 2.5 mM EDTA, 0.5 mg/mL fatty acid free bovine serum aldumin, pH 7.5). […] Non-specific binding was measured in wells containing WIN 55,212 (10 uM). […]
Conceptually, pIC50 converts a concentration in mol/L into minus its log10.

Completed entries (count: 5):
Query: State the recorded pIC50 for this entry: `Cn1nc(C(=O)N[C@H](CO)Cc2ccc(O)cc2)c2c1/C(=C/c1cccc(F)c1)CCCC2`
Result: 7.00

Query: Sample `C[C@H](NC(=O)c1n[nH]c2c1CCCC/C2=C\c1ccc(Cl)cc1)c1ccccc1` — what was its pIC50?
Result: 8.22

Query: Entry `COC(=O)[C@@H](Cc1ccc(F)cc1)NC(=O)c1n[nH]c2c1CCCC/C2=C\c1cccc(Cl)c1` : reported pIC50 = ?
Result: 8.22

Query: Bench note: what pIC50 did `C[C@H](NC(=O)c1nn(-c2ccc(Cl)cc2Cl)c2c1CCCC/C2=C\c1ccc(F)cc1)C1CCCCC1` show?
Result: 7.10

Query: For the compound C[C@H](NS(=O)(=O)/C=C/c1nn(-c2ccc(F)cc2F)c2c1CCCCC2Cc1cccc(F)c1)c1ccccc1 (stereo partly drawn) , what pIC50 is on record?
Result: 6.40

New cases:
Query: What measured pIC50 goes with `O=C(NN1CCCCC1)c1nn(-c2ccc(Cl)cc2Cl)c2c1CCCC/C2=C\c1ccc(Cl)cc1` ?
Result: 7.00

Query: Fill blank: measured pIC50 of the compound COC(=O)[C@@H](Cc1ccc(F)cc1)NC(=O)c1nn(-c2ccc(Cl)cc2Cl)c2c1CCCCC2Cc1cccc(Cl)c1 (stereo partly drawn) is ____.
Result: 6.52

Query: # input compound: `O=C(NCc1ccccn1)c1nn(-c2ccc(Cl)cc2Cl)c2c1CCCC/C2=C\c1ccc(Cl)cc1` ; wanted: its pIC50
Result: 7.15

Query: May I ask what pIC50 has been recorded for C[C@H](NS(=O)(=O)/C=C/c1nn(-c2ccc(Cl)cc2Cl)c2c1CCCCC2Cc1cccc(Cl)c1)c1ccccc1 (stereo partly drawn) ?
Result: 5.89

Query: Given the entry `COc1ccc(/C=C2\CCCCc3c(C(=O)NCc4ccccn4)nn(-c4ccc(Cl)cc4Cl)c32)cc1` , report its measured pIC50.
Result: 7.40

Query: What pIC50 value was documented for this compound, `C[C@H](NC(=O)c1nn(-c2ccc(Cl)cc2Cl)c2c1CCCC/C2=C\c1ccc(Cl)cc1)C1CCCCC1` ?
Result: 7.52

Query: Name the recorded pIC50 for `Cn1nc(C(=O)N[C@@H](CO)c2ccccc2)c2c1/C(=C/c1cccc(F)c1)CCCC2` .
Result: 7.70

Query: Item CC(NC(=O)c1nn(-c2ccc(Cl)cc2Cl)c2c1CCCC/C2=C\c1ccc(F)cc1)c1ccccn1 (stereo not drawn) has what recorded pIC50?
Result: 8.10

Query: So what does the record say about pIC50 for `C[C@@H](NC(=O)c1nn(-c2ccc(Cl)cc2Cl)c2c1CCCC/C2=C\c1ccc(F)cc1)C1CCCCC1` ?
Result: 8.15

Query: Data request, read-out pIC50, for O=C(N[C@@H](CO)c1ccccc1)c1n[nH]c2c1CCCCC2Cc1cccc(Cl)c1 (stereo in doubt)
Result: 7.22
